# Tested on: K4 kissing-loop RNA reporter
# EXPERIMENT: apparent KD of K4 kissing-loop reporter; higher = weaker reporter binding
# MEASUREMENT_CONTEXT: Eterna round: R107; input ligand: arginine 13.2 mM
RECORDED_ENDPOINT: apparent KD of K4 kissing-loop reporter (nM)
Answer format: numeric, nM implied, no suffix.

Need apparent KD of K4 kissing-loop reporter, item AAAAUAAAUAGCAGUCACGGAGUGAUGUUCCGAGGACCGGUACGGCCGCCACUCGACCAGACAAAGUCUGGAGGCGGAGACUGCA [#SwitchBubble 20 #K4Early]
176

* * *

Catalogue of sequences with associated apparent KD of MS2 coat protein
# Tested on: MS2 coat protein
# EXPERIMENT: apparent KD of MS2 coat protein; designed switch direction (-1 OFF switch, 1 ON switch): -1; higher = weaker reporter binding
# MEASUREMENT_CONTEXT: input ligand: none
API: value field is a number in nM; no unit string.

| RECORD_SEQUENCE | apparent KD of MS2 coat protein (nM) |
| --- | --- |
| UGAAACCUAGGAUAUACAUGAGGAUCACCCAUGUAAUGUAGUAUAGUAUAUGUAAGAUGUAGAAGGAGGAAAGU [LRO-Excl05-27-Smart Aleck] (Eterna round: R97, puzzle: Exclusion 3) | 37.7 |

In the following, a different sequence is considered.
For the sequence UAUUAGCAAGCGAGAUCCCACAUGAGGAUCACCCAUGUGCUCGCAUCCAGAAUUACUGGGUGCAAAGCUCGUCUUAU [Winner reversed engineered 8] (Eterna round: R97, puzzle: Sensor, turn-off variant 1) , what apparent KD of MS2 coat protein is on record?
23.3

* * *

# Tested on: MS2 coat protein
# EXPERIMENT: apparent KD of MS2 coat protein; designed switch direction (-1 OFF switch, 1 ON switch): -1; higher = weaker reporter binding
# MEASUREMENT_CONTEXT: input ligand: microRNA oligo, concentration not stated
RECORDED_ENDPOINT: apparent KD of MS2 coat protein (nM)
Enter your answer as a number in nM; do not include the unit.

Reference set, count: 2
| RECORD_SEQUENCE | MEASURED |
| --- | --- |
| AGCAGCCAAUCAGGAUAUACUUUCAGGUGAAGCGUCGCGGGCGAUAACAUGAGGAUCACCCAUGUGUAGAAGGGAUGCGCAAAC [Eternabot solution 39] (Eterna round: R96, puzzle: Exclusion NG 2) | 30.3 |
| AGCUGUGGCCGAGGAUAUCCAGCCUUAAAUACCGACGUAUAGUCGGACAUGAGGAUCACCCAUGUGGAGAAGGCGGUCUCAGCA [Eli eng2 - 045] (Eterna round: R96, puzzle: Exclusion NG 2) | 36.4 |

--- query ---
Consider the sequence shown here: UUAAAUCAUGUAGGAUAUGCGUGGCGAAGCUAUGCAGAAGGACAUGAGGAUCACCCAUGUGCUGCGGUCUGCGUACAGAUCGCA [JL ENG1 1.06] (Eterna round: R96, puzzle: Exclusion NG 1) What is its recorded apparent KD of MS2 coat protein?
259

* * *

# System: MS2 coat protein
# EXPERIMENT: apparent KD of MS2 coat protein; designed switch direction (-1 OFF switch, 1 ON switch): -1; higher = weaker reporter binding
# MEASUREMENT_CONTEXT: input ligand: microRNA oligo, concentration not stated
RECORDED_ENDPOINT: apparent KD of MS2 coat protein (nM)
Respond with the bare value in nM.

Some sequences with recorded apparent KD of MS2 coat protein:
| RECORD_SEQUENCE | apparent KD of MS2 coat protein, nM |
| --- | --- |
| UUAAAUCAUGUAGGAUAUGCGUGGCGAAGCUAUGCAGAAGGACAUGAGGAUCACCCAUGUUCUGCGGUCUGCGUACAGAUCGCA [JL ENG1 1.05] (Eterna round: R96, puzzle: Exclusion NG 1) | 29.1 |
| GCACGGAUGGUAGGAUAUCAUUGCGAUUAGCUAUGAGAAGGGCCACAUGAGGAUCACCCAUGUCCUCUAAUUAGCCUUCCGUGC [Eli exng1 - 018] (Eterna round: R96, puzzle: Exclusion NG 1) | 82.3 |
| UUUAUAUAGUAAGGAUAUGUAUUAUUUUUUACAACAGAAGGUACUGACAUGAGGAUCACCCAUGUUUUAGUGUGGGCAUGUAGU [JMF's solution 100] (Eterna round: R96, puzzle: Exclusion NG 1) | 217 |

Form: Entry = GGAAGAAAGCGAGGAUAUCGAUAAGAAGAAGAAGAUAAGGUGACAUGAGGAUCACCCAUGUAAUACGAGAAGGCGCGACCUGCG [i'd better go back to my homework] (Eterna round: R96, puzzle: Exclusion NG 2) | System = MS2 coat protein | apparent KD of MS2 coat protein = ____
147

Query CGAUGCUCGUGUCCACAUGAGGAUCACCCAUGUCGAGUUAGCGAGGAUAUCGGUGACACAUAGUACGAGAAGGCGCGAACCUGA [Ex NG3 #26] (Eterna round: R96, puzzle: Exclusion NG 3) next
21

* * *

Listed next: entries and their corresponding apparent KD of MS2 coat protein.
# Tested on: MS2 coat protein
# EXPERIMENT: apparent KD of MS2 coat protein; designed switch direction (-1 OFF switch, 1 ON switch): -1; higher = weaker reporter binding
# MEASUREMENT_CONTEXT: input ligand: none
Give the value in nM but do not write nM after it.

Worked examples, 4 sequences total:
| RECORD_SEQUENCE | MEASURED |
| --- | --- |
| ACAUGACAGCUAGGAUAUAAAUGACAUGAGGAUCACCCAUGUUGUCCCAUGUUGAGGAUCACCCAUUAGAAGGAGCCACCCAUG [Exclusion NG2 S1] (Eterna round: R96, puzzle: Exclusion NG 2) | 85.3 |
| UGUAACCUAGGAUAUACAUGAGGAUCACCCAUGUAAUGUAGUAUAGUGUGUGUAAGGUGUAGAAGGAGGGAUGU [LRO-Excl05-22-Smart Aleck] (Eterna round: R97, puzzle: Exclusion 3) | 62.9 |
| UGCAAGCUUUUAAGAUCCUACAUGAGGAUCACCCAUGUGCUCGUCUUAUAACGUACUGUGACGAAAGUCACGGUACG [JL TOV1 3.95] (Eterna round: R97, puzzle: Sensor, turn-off variant 1) | 114 |
| GGUCGUUUAGUGAGGAUAUGCAGCGUCAUAGCGCAGCAGAAGGCACAUGAGGAUCACCCAUGUCCUCCCAAAAG [Eternabot (L1) Solution 9] (Eterna round: R97, puzzle: Brourd's mod of Exclusion 4) | 18.9 |

Suppose we examine the sequence CUGAGAAUAGGAUAUACUAACAAUGGAGUAGCUUCACGUCAACAUGAGGAUCACCCAUGUAGAAGGGUUAGCGG [Eternabot (L1) Solution 33] (Eterna round: R97, puzzle: Exclusion 2) ; what apparent KD of MS2 coat protein value has been reported?
30

* * *

The following sequences are listed with their measured apparent KD of K4 kissing-loop reporter values.
# System: K4 kissing-loop RNA reporter;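 also: bound reporter read as fluorescence of individual clusters on recovered sequencing chips by microscopy, with normalized cluster intensities fitted with a binding model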
# EXPERIMENT: apparent KD of K4 kissing-loop reporter; higher = weaker reporter binding
# MEASUREMENT_CONTEXT: Eterna round: R107; input ligand: arginine 13.2 mM
Respond with the bare value in nM.

Below, 2 sequences whose answers are already recorded.
| RECORD_SEQUENCE | READOUT_UNIT | apparent KD of K4 kissing-loop reporter |
| --- | --- | --- |
| CUGUACAUCUCGGCCGCCACUGACCUAAGUGAUGUUAGGAAUGAAACCUAGUGAUGUUAGCAAACCAGGACCGGGAGGUGUGCAG [KL-SSTryp-B4 #Double Kiss] | nM | 33.4 |
| UAGUCCUAGUGAUGGUUAUCACGUGGUGGGCGAGGACCGGUACGGCCGCCACUCGACUAUGCAGUGAUGUUGCAAUCCGGACAAU [Exclusion - Tryptophan A (Freestyle 16)] | nM | 411 |

Note: attention shifts to another entry.
Look up apparent KD of K4 kissing-loop reporter: GGAGGAGAAUAUGAUACCAGCAGAGAGAGAUACGAAGUAUAGUGAUGUUAUAUGAGAGAAUGCCCUUGGCAGCAUAAGACGCAGG [#08 K4 Theophylline B Same State]
83.3

* * *

# Test system: MS2 coat protein
# EXPERIMENT: apparent KD of MS2 coat protein; designed switch direction (-1 OFF switch, 1 ON switch): -1; higher = weaker reporter binding
# MEASUREMENT_CONTEXT: input ligand: none
RECORDED_ENDPOINT: apparent KD of MS2 coat protein (µM)
Write it as a number; the unit µM goes unstated.

In the examples that follow, each entry is paired with its recorded apparent KD of MS2 coat protein.
| RECORD_SEQUENCE | MEASURED |
| --- | --- |
| ACAAGCGCGAAAGUCUUAUACAUGAGGAUCACCCAUGUUCUCAAGGUCUUAUGUACUGACACGAUUACUCGUCUUAU [AK-miRNA-r3-4] (Eterna round: R97, puzzle: Sensor, turn-off variant 1) | 0.112 |
| CUCGUGCAGCUUUGCUGUACGAGUACAUGAGGAUCACCCAUGUAGGAUAUGGUACGCUUUGCGUGCCAGAAGGACGUGUGUUUG [JL EXNG3 1.40] (Eterna round: R96, puzzle: Exclusion NG 3) | 0.0394 |
| AGGUCACAUGAGGAUCACCCAUGUGAGGAUAUAGACUCAAGAGCUUCGGCUCUCAAGUUUAGAAGGCGCUAUGA [EX1 #51] (Eterna round: R97, puzzle: Exclusion 1) | 0.0263 |

apparent KD of MS2 coat protein of GUAGAUCGAGUUAGGAUAUGAUUAAAAUUCGGAUAUCAGAAGGAACUUGAGGAUCACCCAAGUAUAGAUGAUUC [JR_BMEx4_Sub057] (Eterna round: R97, puzzle: Brourd's mod of Exclusion 4) on MS2 coat protein?
0.0298

Follow-up entry: CUGGACAGAGGAUAUUGUGCUGCUGACAUGAGGAUCACCCAUGUAUGUUAACUCGGCCGUCGAGAAGGCUGACAGG [BotMod 17 - Jieux - Exclusion 5] (Eterna round: R97, puzzle: Exclusion 5)
0.0192

Please give the result for ACAAGCUUAGGUUUUCAUAACAUGAGGAUCACCCAUGUUCGUCUUAUAAAAAUAAAAAUAAAAAACAAAAAAUAAAA [Sensor V2: 66] (Eterna round: R96, puzzle: Sensor v2, turn-off variant) too.
0.0412

Same read-out for UAUUAGCAAGCGAGAUCCUACAUGAGGAUCACCCAUGUGCUCGUCUUAUAAGGUACUGUGACGAAAGUCACGGUACC [Eli 91 v36] (Eterna round: R97, puzzle: Sensor, turn-off variant 1) ?
0.0275

Record: GGAAGAAAGCGAGGAUAUCGAUAAGAAGAAGAAGAUAAGGUGACAUGAGGAUCACCCAUGUAAUACGAGAAGGCGCGACCUGCG [i'd better go back to my homework] (Eterna round: R96, puzzle: Exclusion NG 2)
0.197

And what about the sequence AAGGGUACUUUCGGAACGACAUGAGGAUCACCCAUGUAGACUGAGGAUAUCUGCUACUAAGGACGGGAGAAGGCAGUGUAAUGU [Ex NG3 #75] (Eterna round: R96, puzzle: Exclusion NG 3) ?
0.0187

Another sequence to check: AUCACGGAUGUAAGGAUAUACAAAACCAUAAGGUAGUAGAAGGUACAUGAGGAUCACCCAUGUGCAUAUGUUUA [BmEX4 C.14] (Eterna round: R97, puzzle: Brourd's mod of Exclusion 4)
0.0162

Each recorded value in this set is attributed to the supplement of paper PMC9170038.
